# protocol_text: human hepatoma cell viability loss – ATP luminescence, cytotoxicity control for P. falciparum antimalarial project, primary screen (AID 2303);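 note: 0% = DMSO wells and 100% = digitonin-killed cells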
# settings: HepG2 viability, 24-48 h, at 10 µM, stronger effect = higher value
Active and inactive are the calls of the source.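 Rule for the calls: active = inhibition above 50%; inactive = the rest.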
Each entry below carries its reported inhibition.

{"columns": ["compound", "inhibition"],
 "data": [
  ["Nc1ncc(-c2ccsc2)c2ccc(-c3cc(NCc4ccccc4)ncn3)cc12", "0% (inactive)"],
  ["COc1cccc(CNC[C@@H](O)[C@H](Cc2ccccc2)NC(=O)c2cc(NC(C)C)cc(N3CCCCS3(=O)=O)c2)c1", "1% (inactive)"],
  ["CCN(CC)c1nc(Nc2cc(C)ccc2C)nc(Nc2ccccc2O)n1", "-9% (inactive)"],
  ["Cc1cccc2[nH]c(-c3ccc(-c4cccc(NC(=O)c5cccc(C(N)=O)c5)c4)cc3)nc12", "14% (inactive)"],
  ["COc1cc2nc(NCCn3nc(C)cc3C)nc(NCCc3ccccc3)c2cc1OC", "28% (inactive)"],
  ["COc1ccc(CNC2CCN(C)CC2)cc1-c1ccc(S(=O)(=O)NCc2cccnc2)s1", "10% (inactive)"],
  ["CCN(C(=O)c1ccc(NC(=O)c2cccs2)cc1)c1nc2c(C)cccc2s1", "24% (inactive)"],
  ["COc1ccc2cc(CNCCCCCCNCc3ccc4cc(OC)ccc4c3)ccc2c1", "100% (active)"],
  ["Cc1ccc(NC(=O)NC2CCN(c3ccnc4cc(Cl)ccc34)C2)cc1 (stereo not given)", "19% (inactive)"],
  ["COc1nc2c(CCN3CCC(NCc4ccc5c(c4)NC(=O)CO5)CC3)c(Cl)cnc2cc1F", "15% (inactive)"]
]}

---

# protocol_text: antimalarial activity against Dd2 strain (AID 2302);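 note: 0% = DMSO untreated growth and 100% = chloroquine plus artemisinin killed control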
# settings: P. falciparum Dd2 in RBCs, LDH growth readout, 72 h; at 2 µM; stronger effect = higher value

{"columns": ["compound", "reading_unit", "growth inhibition"],
 "data": [
  ["CN(Cc1ccc(-c2ccc(C(F)(F)F)cc2)cc1)C(=O)Cn1c(CCc2cccc(F)c2F)cc(=O)c2ccc(OCC3CCCN3C)cc21 (centres undefined)", "%", 37],
  ["COc1ccc([C@@]23Oc4cc(OC)cc(OC)c4[C@]2(O)C2(CC3c3ccccc3)SCCCS2)cc1 (some centres undefined)", "%", 97],
  ["COc1ccc(-c2cc3nc4c(c(NCCCn5ccnc5)n3n2)CCCC4)cc1", "%", 74],
  ["Cc1cc(CN2CCC(N3CC(c4ccccc4)(c4ccccc4)OCC3=O)C2)ccc1O (centres undefined)", "%", 52]
]}

---

# assayed_system: Plasmodium falciparum protein kinase 6 (PK6, PF3D7_1337100) (UniProt Q8IDW1)
# protocol_text: PfPK6 kinase inhibitors, biochemical, TCAMS library (AID 1159586)
# settings: recombinant PfPK6, Kinase-Glo ATP depletion luminescence
Measured potencies and affinities stand elsewhere. Active and inactive are the calls of the source. No rule for the calls is given here.
endpoint: outcome

{"columns": ["compound", "assayed_system", "result"],
 "data": [
  ["Nc1ncc(-c2ccsc2)c2ccc(-c3cc(NCc4ccccc4)ncn3)cc12", "Plasmodium falciparum protein kinase 6 (PK6, PF3D7_1337100) (UniProt Q8IDW1)", "inactive"],
  ["O=C(NCc1cccc(C(F)(F)F)c1)c1ccc(CNC(=O)c2ccc(O)c(-c3ccc(Cl)c(Cl)c3)c2)cc1", "Plasmodium falciparum protein kinase 6 (PK6, PF3D7_1337100) (UniProt Q8IDW1)", "inactive"],
  ["CC[C@H](C)CNC(=O)c1ccc(-c2cccc(CN3CCC(N4CCCC4)CC3)c2)nc1", "Plasmodium falciparum protein kinase 6 (PK6, PF3D7_1337100) (UniProt Q8IDW1)", "inactive"],
  ["CN1CCN(CCCN(Cc2csc(-c3ccc(CNCc4ccccc4)cc3)n2)C(=O)Nc2cc(Cl)cc(Cl)c2)CC1", "Plasmodium falciparum protein kinase 6 (PK6, PF3D7_1337100) (UniProt Q8IDW1)", "inactive"],
  ["O=C(NCCCCN1CCC(c2ccc3ccccc3c2O)CC1)c1ccc(NC(=O)c2ccc(Cl)cc2)cc1", "Plasmodium falciparum protein kinase 6 (PK6, PF3D7_1337100) (UniProt Q8IDW1)", "inactive"],
  ["COc1ccc(CC2(c3ccc(F)cc3)N=C(N)N(CCCc3cccnc3)C2=O)cc1 (centres undefined)", "Plasmodium falciparum protein kinase 6 (PK6, PF3D7_1337100) (UniProt Q8IDW1)", "inactive"],
  ["CCCN(CC1CC1)c1ncc(-c2cccc(CNCc3ccccc3O)c2)cn1", "Plasmodium falciparum protein kinase 6 (PK6, PF3D7_1337100) (UniProt Q8IDW1)", "inactive"],
  ["O=S(=O)(NCCN1CCCC1)c1cccc(-c2ccc(CNC3Cc4ccccc4C3)cc2)c1", "Plasmodium falciparum protein kinase 6 (PK6, PF3D7_1337100) (UniProt Q8IDW1)", "inactive"],
  ["Cc1c(CNCCN2CCCCC2)c(C(=O)O)c(C)n1Cc1ccc(Cl)cc1", "Plasmodium falciparum protein kinase 6 (PK6, PF3D7_1337100) (UniProt Q8IDW1)", "inactive"]
]}

---

# assayed_system: Calcium-dependent protein kinase 4 (Plasmodium falciparum (isolate 3D7))
# protocol_text: PfCDPK4 kinase inhibitors, biochemical, TCAMS library (AID 1159588)
# settings: recombinant PfCDPK4, Kinase-Glo ATP depletion luminescence
Entries with a potency or affinity are not part of this list. Activity calls are given as the source filed them. The limit is not given here; nearly all actives have IC50 up to about 0.91 µM.
endpoint: outcome

{"columns": ["compound", "result"],
 "data": [
  ["CO/C(=C\\C=C\\c1cc2cc(Cl)c(Cl)cc2[nH]1)C(=O)NCCCN1CCN(c2cccc(OCC(=O)Nc3cccc(C(=O)c4ccccc4)c3)c2)CC1", "inactive"],
  ["CCOc1ccc(N2CCN(CCCCNC(=O)c3ccc(NC(=O)c4ccc(Cl)cc4)cc3)CC2)c(OCC)c1", "inactive"],
  ["Cc1cnc(CNCc2ccc(S(=O)(=O)Nc3ccc(Oc4cccc(Cl)c4)cc3)cc2)cn1", "inactive"],
  ["COc1ccc(-c2ccc(NC(=O)c3ccc(Cl)cc3)cc2)cc1CN(C)CCN(C)C", "inactive"],
  ["O=C(Nc1cccc(-c2cccc(-c3nc4ccc(F)cc4[nH]3)c2)c1)c1cnc[nH]1", "inactive"],
  ["COC(=O)C1=CNC=C(C(=O)OC)C1c1ccc(Cl)c([N+](=O)[O-])c1", "inactive"],
  ["O=S(=O)(Nc1cccc(CCN2CCC(N3CCCCC3)CC2)c1)c1ccc(Oc2ccccc2)nc1", "inactive"],
  ["O=C(Nc1ccc(Cl)cc1)Nc1cccc(-c2cccc(-c3nc4ccccc4[nH]3)c2)c1", "inactive"],
  ["O=C(Nc1nc2cc(S(=O)(=O)NCc3ccc(Cl)c(Cl)c3)ccc2n1CCCN1CCCC1)c1ccc(Cl)cc1", "inactive"],
  ["COc1cccc(C(=O)NC(c2ccccc2OC)c2cc(Cl)c3cccnc3c2O)c1 (stereo not given)", "inactive"],
  ["CC1(C)N=C(N)N=C(N)N1c1cccc(I)c1", "inactive"],
  ["Nc1nc(N)c2c(ccc3c2ccn3Cc2ccc(-c3ccccc3)cc2)n1", "inactive"],
  ["COc1nc(Nc2cccc(C)c2)nc(OC)n1", "inactive"],
  ["O=C(NC1CCCCCC1)[C@@H]1CCCN1C(=O)c1ccc(O)c(-c2ccc(Cl)c(Cl)c2)c1", "inactive"],
  ["c1cc(CNc2ncc(-c3ccsc3)c(-c3nccs3)n2)ccn1", "inactive"],
  ["CC(C)(C)c1ccc(CN2CCC(NC(=O)c3ccc(-c4cccc(Cl)c4)s3)CC2)cc1", "inactive"],
  ["Cc1c(-c2ccccc2)ccc2[nH]cc(CC#N)c12", "inactive"],
  ["Cc1nc2ccccn2c1C1(O)C(=O)Nc2c(Cl)cc(Cl)cc21 (stereo not given)", "inactive"],
  ["O=C(Nc1ccc(Cl)cc1C(=O)Nc1cccc(F)c1)c1ccc([N+](=O)[O-])cc1", "inactive"],
  ["CCN1CCN(c2cc(C)c3cc(NC(=O)c4cc(OC)cc(OC)c4)ccc3n2)CC1", "inactive"]
]}

---

# assayed_system: L-lactate dehydrogenase (Plasmodium falciparum (isolate CDC / Honduras)) (UniProt Q27743)
# Sequence (Q27743 whole entry, looked up): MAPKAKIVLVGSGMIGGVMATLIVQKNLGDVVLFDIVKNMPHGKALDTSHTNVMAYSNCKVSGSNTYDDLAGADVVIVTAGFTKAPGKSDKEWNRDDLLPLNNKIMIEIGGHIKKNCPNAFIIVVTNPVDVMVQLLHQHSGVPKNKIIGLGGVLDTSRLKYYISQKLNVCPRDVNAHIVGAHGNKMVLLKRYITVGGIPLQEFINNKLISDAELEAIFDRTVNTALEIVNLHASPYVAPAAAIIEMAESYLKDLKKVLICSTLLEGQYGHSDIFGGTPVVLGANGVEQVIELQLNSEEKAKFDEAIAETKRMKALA
# protocol_text: PfLDH activity inhibition – cell lysate, 3D7 strain, counter-screen for P. falciparum growth inhibition project (AID 2304);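 note: 0% = vehicle and 100% = reference inhibitor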
# settings: P. falciparum 3D7 crude extract, LDH APAD/NBT absorbance; at 2 µM; stronger effect = higher value
endpoint: inhibition (%)

{"columns": ["compound", "endpoint", "quantitative_result"],
 "data": [
  ["CC(CN1CCN(CC(c2ccc(F)cc2)N2CCN(C)CC2)CC1)C(=O)c1ccc(O)cc1 (centres undefined)", "inhibition", -5],
  ["Nc1nc(N)c2c(Cc3ccccc3)cccc2n1", "inhibition", -7],
  ["CCCN(CCC)CCCN(CCCN(CCC)CCC)c1cc(C)nc(Nc2ccc(Cl)cc2)n1", "inhibition", -6],
  ["O=C(Nc1ccc(OC2CCN(Cc3ccsc3)C2)c(Cl)c1)c1ccc2ncccc2c1 (centres undefined)", "inhibition", -1],
  ["COc1c(C2CCN(CCCCNC(=O)c3ccc(C)c(-c4ccc(C(F)(F)F)cc4)c3)CC2)ccc2c1CCCC2", "inhibition", -5],
  ["Cc1csc(-c2nonc2NC(=O)COc2ccccc2C(C)C)n1", "inhibition", -1],
  ["C#CCN(Cc1cc2c(=O)[nH]c(N)nc2cc1C)c1ccc(C(=O)N[C@@H](CCC(=O)O)C(=O)O)cc1", "inhibition", -1],
  ["Cc1cc(F)ccc1[C@H]1CNCCN1C(=O)N(C)C(C)(C)c1cc(C(F)(F)F)cc(C(F)(F)F)c1", "inhibition", -4],
  ["COc1ccc2nccc([C@@H](O)CN3CCC(NCc4nc5c(OCc6ccccc6)cccc5[nH]4)CC3)c2c1", "inhibition", 3]
]}
